Reference source: paper PMC12222516

- method: MTT cytotoxicity assay
- Format: cell-based, human
- run.conditions: human, normal human dermal fibroblast (HDF) cells
endpoint.label: CC50 at 24 h (µM)
One number for each entry, in µM.

Known results for compounds:
The reported value for C[C@H]1CN(C(=O)Nc2ccc(C(F)(F)F)cc2)CCN1c1ccnc(Nc2ccc(Cl)cc2)n1 [Compound 7c] in terms of CC50 at 24 h is 42.3

The reported value for C[C@H]1CN(C(=O)Nc2ccc(C(F)(F)F)cc2)CCN1c1ccnc(Nc2ccc(Cl)c(O)c2)n1 [Compound 21c] in terms of CC50 at 24 h is 23.1

Now for another entry.
The reported value for C[C@H]1CN(C(=O)Nc2ccc(C(F)(F)F)cc2)CCN1c1ccnc(Nc2cccc([N+](=O)[O-])c2)n1 [Compound 17c] in terms of CC50 at 24 h is 15.2

---

- measured.target: α-glucosidase from Saccharomyces cerevisiae (Saccharomyces cerevisiae)
- Sequence (P53341 whole entry): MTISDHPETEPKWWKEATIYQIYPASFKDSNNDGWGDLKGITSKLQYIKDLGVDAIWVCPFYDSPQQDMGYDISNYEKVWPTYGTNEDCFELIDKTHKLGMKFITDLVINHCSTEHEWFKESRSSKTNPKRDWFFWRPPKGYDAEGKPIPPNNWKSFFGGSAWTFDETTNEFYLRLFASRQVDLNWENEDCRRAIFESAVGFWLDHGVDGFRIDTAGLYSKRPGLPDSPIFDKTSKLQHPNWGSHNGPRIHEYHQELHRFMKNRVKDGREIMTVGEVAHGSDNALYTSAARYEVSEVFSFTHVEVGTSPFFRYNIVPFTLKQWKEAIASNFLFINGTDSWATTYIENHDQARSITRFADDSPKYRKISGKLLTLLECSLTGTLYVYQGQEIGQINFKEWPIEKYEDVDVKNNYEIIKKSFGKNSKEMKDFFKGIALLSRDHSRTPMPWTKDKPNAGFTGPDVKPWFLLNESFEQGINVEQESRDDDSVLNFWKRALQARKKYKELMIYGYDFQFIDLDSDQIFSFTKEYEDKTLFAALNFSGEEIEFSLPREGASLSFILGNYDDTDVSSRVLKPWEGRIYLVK
endpoint.label: Ki (nM)
Answers are plain numbers, in nM.

Entry C[C@H]1CN(C(=O)Nc2ccc(C(F)(F)F)cc2)CCN1c1ccnc(Nc2ccc(Cl)c(O)c2)n1 [Compound 21c] : Ki on α-glucosidase from Saccharomyces cerevisiae (Saccharomyces cerevisiae) = 740
